Recorded pIC50, one value per entry.
target: BTK, recombinant human catalytic domain (aa 393-659) (Homo sapiens (Human)); test: In vitro BTK kinase activity measured by time-resolved fluorescence resonance energy transfer (trFRET); format: biochemical; details: read-out: Btk IC50
pIC50: −log10 of the molar value.

- molecule: "Cn1cc(-c2cc3c(N4CCC[C@@H](n5cnc6ccccc6c5=O)C4)ccc(C(N)=O)c3[nH]2)cn1 [O.1.16*]"
  pIC50: "6.00 to 7.00"

Exam item: Looking for the measured pIC50 of COC1CCCC(C(=O)Nc2cccc(-c3ccc(C(N)=O)c4[nH]c(C5=CCN(S(C)(=O)=O)CC5)cc34)c2C)C1 (stereo not shown) [D.7.34] , can you help?
Marked response: > 7.00

Exam item: Moving on to Cc1ccc(-c2cc3c(Cc4c(Cl)cccc4Cl)ccc(C(N)=O)c3[nH]2)cc1 [U.1.1]
Marked response: 5.00 to 6.00

Exam item: Moving on to NC(=O)c1ccc(N2CCC[C@@H](n3cnc4ccccc4c3=O)C2)c2cc[nH]c12 [O.1.12*]
Marked response: 5.00 to 6.00

###

target: BTK, recombinant human catalytic domain (aa 393-659) (Homo sapiens (Human)); experiment: In vitro BTK kinase activity measured by time-resolved fluorescence resonance energy transfer (trFRET); assay type: biochemical; settings: trFRET, 0.001 mM ATP, biotin-TYR1 peptide substrate; read-out: Btk IC50
valueKind: IC50

- compound: "Cc1c(-c2ccc(C(N)=O)c3[nH]c(-c4cnn(C)c4)nc23)cccc1-n1cnc2ccccc2c1=O [Example 14]"
  IC50: "100 to 1000 nM"
- compound: "C=CC(=O)N1CC(Oc2ccc(C(N)=O)c3[nH]ccc23)C1 [Example 27]"
  IC50: "< 100 nM"
- compound: "Cc1ccc(-c2cc3c(-c4cccnc4)ccc(C(N)=O)c3[nH]2)cc1 [A.8.3]"
  IC50: "100 to 1000 nM"

Exam item: Hello, I am looking for reported IC50 with BTK, recombinant human catalytic domain (aa 393-659) (Homo sapiens (Human)) for C=C(CN1CCOCC1)C(=O)Nc1cccc(-c2ccc(C(N)=O)c3[nH]ccc23)c1 [D.6.2] . Could you help?
Marked response: < 100 nM

Exam item: Moving on to CCCC(=O)NCc1ccccc1-c1cc2c(-c3cccc(NC(=O)c4nccs4)c3C)ccc(C(N)=O)c2[nH]1 [D.1.8]
Marked response: 1000 to 10000 nM

Exam item: Moving on to CC(=O)N1CC=C(c2cc3c(-c4cccc(NC(=O)c5cc6c(s5)CCCC6)c4C)ccc(C(N)=O)c3[nH]2)CC1 [A.3.5]
Marked response: < 100 nM

Exam item: Moving on to Cc1c(NC(=O)/C=C/c2ccccn2)cccc1-c1ccc(C(N)=O)c2[nH]ccc12 [D.8.3]
Marked response: 100 to 1000 nM

Exam item: Moving on to Cc1c(-c2ccc(C(N)=O)c3[nH]c(-c4cnn(C)c4)cc23)cccc1N(C(=O)c1nccs1)C1COC1 [A.10.3]
Marked response: < 100 nM

Exam item: Moving on to CC(=O)N1CC=C(c2cc3c(-c4cccc(NC(=O)c5nccs5)c4C)ccc(C(N)=O)c3[nH]2)CC1 [A.3.4]
Marked response: < 100 nM

###

biological target: BTK, recombinant human catalytic domain (aa 393-659) (Homo sapiens (Human), UniProt Q06187); test: In vitro BTK kinase activity measured by time-resolved fluorescence resonance energy transfer (trFRET); type: biochemical; conditions: read-out: Btk IC50
Sequence (Q06187 393-659): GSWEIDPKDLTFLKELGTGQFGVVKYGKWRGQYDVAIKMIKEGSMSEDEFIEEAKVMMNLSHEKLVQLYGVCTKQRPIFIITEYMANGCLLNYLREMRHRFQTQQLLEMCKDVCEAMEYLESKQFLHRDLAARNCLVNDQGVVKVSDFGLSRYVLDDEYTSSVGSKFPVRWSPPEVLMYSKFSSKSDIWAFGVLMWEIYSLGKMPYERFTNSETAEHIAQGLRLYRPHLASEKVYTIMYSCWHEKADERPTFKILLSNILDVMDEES
pIC50: −log10 of the molar value.
valueKind: pIC50

- molecule: "C=C(CNC)C(=O)Nc1cccc(-c2ccc(C(N)=O)c3[nH]ccc23)c1 [G.1.3]"
  pIC50: "> 7.00"
- molecule: "C=CC(=O)N1CCC[C@H](c2cnc(C(N)=O)c3sc(-c4cnn(C)c4)nc23)C1 [E.9.36]"
  pIC50: "> 7.00"

Exam item: Looking for the measured pIC50 of Cc1nc(C(=O)Nc2cccc(-c3ccc(C(N)=O)c4[nH]c(C5=CCN(S(C)(=O)=O)CC5)cc34)c2C)cs1 [D.7.30] , can you help?
Marked response: > 7.00

Exam item: Moving on to Cc1c(NC(=O)/C=C/CNC2CC2)cccc1-c1ccc(C(N)=O)c2[nH]ccc12 [J.1.4]
Marked response: 6.00 to 7.00

Exam item: Moving on to Cc1c(NC(=O)CCN2CCCCC2)cccc1-c1ccc(C(N)=O)c2[nH]c(C3=CCN(S(C)(=O)=O)CC3)cc12 [D.7.3]
Marked response: 6.00 to 7.00
